- Test system: RPMI-8226 leukemia
- PROTOCOL_TEXT: NCI-60 one-dose screen, 48 h
- TEST_SETTINGS: 10 µM unless noted
About 83,000 compounds went through this panel and 20% of them were active in at least one assay; those are over-represented in the sample as a whole. The source made the active and inactive calls. Rule for the calls: active = growth percent below 10; inactive = the rest.
Classes used: active, inactive

1. CCOC(=O)c1sc2nc(-c3cc(OC)c(OC)c(OC)c3)nc(N3CCOCC3)c2c1C: active
2. c1ccc2c(c1)CN(CCCN1CCOCC1)C2: inactive
3. Cc1cccc(C[C@H](NC(=O)Nc2ccc(C)cc2F)C(=O)N[C@@H]2C(=O)N3C[C@H](O)C[C@H]3C(=O)N3CCN(C)C[C@H]3C(=O)N[C@@H](C)C(=O)N3C[C@H](C)C[C@H]3C(=O)O[C@H]2C)c1: inactive
4. CC1(C)CC[C@]23CC[C@]4(C)[C@H](CC[C@@H]5[C@@]6(C)C/C(=C/c7cccnc7)C(=O)C(C)(C)[C@@H]6CC[C@]54C)[C@H]2[C@H]1OC3=O: inactive
5. O=c1[nH]c(CN2CCN(c3cccc(Cl)c3)CC2)nc2cc(Cl)ccc12: inactive
6. CC1(C)CC(=O)c2c(ccc(C(=O)C[C@@H](N)CO)c2N)O1: active
7. CO[C@H]1CC[C@@]2(C)C(=CC[C@H]3[C@@H]4C[C@H](O)C[C@@]4(C)CC[C@@H]32)C1: inactive
8. CCOC(=O)c1nn(C2CCCCO2)c2ccc(NC(=O)Cn3nnc4ccccc43)cc12 (stereo not drawn): inactive
9. Nc1nc(Cl)c2ncn(Cc3cc4c(cc3I)OCO4)c2n1: inactive
10. Cn1cc(-c2noc(-c3cn(C)c4ncc(Br)cc34)n2)c2cc(Cl)ccc21: inactive
11. CC1(C)OC2[C@@H](CNC(=O)NC(=O)NC(=O)CI)O[C@@H](n3cnc4c(NC(=O)Nc5ccccc5)ncnc43)[C@H]2O1 (stereo partly drawn): inactive
12. O=C(Nc1ccc(Oc2ccc(F)cc2)c(Cl)c1)c1cccnn1: inactive
13. COc1ccc(C(=O)CCC(=O)O)cc1: inactive
14. CCCCCn1sc(=O)n(Cc2ccc(CNC(=O)OCc3ccc4cccc(O)c4n3)cc2)c1=O: active
15. O=C1C(Cl)=C(Nc2ccc3cn[nH]c3c2)C(=O)c2ccccc21: active
16. CCOC(=O)c1cnc2ccc(Br)cc2c1Nc1cccc(S(N)(=O)=O)c1: inactive
17. C=C(C)[C@@H]1CC[C@]2(COCCC#N)CC[C@]3(C)[C@H](CC[C@@H]4[C@@](C)(CCCNCCC#N)[C@H](C(=C)C)CC[C@]43C)[C@@H]12: active
18. CCOc1cc(/C=N\NC(=O)N/N=C/c2ccc(O)c(OCC)c2)ccc1O: inactive

----------
- Tested on: NCI/ADR-RES ovarian
- PROTOCOL_TEXT: NCI-60 one-dose screen, 48 h
- TEST_SETTINGS: 10 µM unless noted
The panel holds about 83,000 compounds, 20% with a hit somewhere; the sample as a whole holds those more often. Calls of active or inactive are those of the source. Rule for the calls: active = growth percent below 10; inactive = the rest.
Classes used: active, inactive

1) CC(C)C1=NOC(=O)C1=Cc1cn(-c2ccco2)nc1-c1ccccc1: inactive
2) Nc1nc(N)c2c(n1)NC(c1ccc(F)cc1)C1CCc3ccccc3C1=N2 (stereo not drawn): inactive
3) Cc1ccccc1OC(=O)c1cccc(Cl)c1: inactive
4) O=c1cc(-c2ccccc2)oc2c(O)c(O)ccc12: inactive
5) COc1ccc(C(=O)CCC(=O)O)cc1: inactive
6) CCOC(=O)n1cc(C2=C(c3ccc(OC)c(OC)c3)COC2=O)c2ccccc21: active
7) O=C1COCCN1c1ccc(NCc2cn(Cc3ccccc3)c3ccccc23)cc1: inactive
8) C=C(C)[C@@H]1CC[C@]2(C(N)=O)CC[C@]3(C)[C@H](CC[C@@H]4[C@@]5(C)C/C(=C/c6cccnc6)[C@H](O)C(C)(C)[C@@H]5CC[C@]43C)[C@@H]12: inactive
9) CC1(C)CC[C@]23CC[C@]4(C)[C@H](CC[C@@H]5[C@@]6(C)C/C(=C/c7ccncc7)C(=O)C(C)(C)[C@@H]6CC[C@]54C)[C@H]2[C@H]1OC3=O: inactive
10) Cc1cccc(C[C@H](NC(=O)Nc2ccc(Cl)cc2F)C(=O)N[C@@H]2C(=O)N3C[C@H](O)C[C@H]3C(=O)N3CCCC[C@H]3C(=O)N[C@@H](C)C(=O)N3C[C@H](C)C[C@H]3C(=O)O[C@H]2C)c1: inactive
11) C=C(C)[C@@H]1CC[C@]2(C)[C@H](CC=C3[C@@H]4[C@@H](C)[C@H](C)CC[C@]4(C(N)=O)CC[C@]32C)[C@@]1(C)CCC#N: active
12) CCN(CC)CCS(=O)(=O)CCNc1ccnc2cc(Cl)ccc12: active
13) Cc1cc(C)nc(SCC(=O)Nc2cccc(N=Cc3ccccc3O)c2)n1: inactive
14) COc1cc2c(c(OC)c1OC)-c1ccc(NNC(N)=S)c(=O)cc1[C@@H](NC(C)=O)CC2: inactive
15) O=C(Nc1cc(F)cc2cccnc12)c1cnc(N2CCNCC2)cn1: inactive
16) CSc1nc2sc3cc(Cl)c(Cl)cc3n2c(=N)c1C#N: inactive
17) Nc1ccc2c(c1)Cc1cc(NC(=O)C(F)(F)F)ccc1-2: inactive
18) Cc1cc(NN=C(c2ccc(O)cc2)c2ccc(O)cc2)c([N+](=O)[O-])cc1[N+](=O)[O-]: inactive
